assay: Human pregnane X receptor (PXR) small molecule agonists, qHTS cell viability counter screen (AID 1346977); settings: PXR-Luc HepG2 viability, CellTiter-Fluor, 24 h; series mostly up to 92.4 µM; also: nearly all actives have a fitted effect of over 50% in size
Inconclusive results are not listed. Activity calls are given as the source filed them. Calls follow the shape of the dose curve; as a rule, active = well fitted cell-killing curve with a large enough effect in the repeat runs; inconclusive = weak or mixed curves, or effect the other way; inactive = flat fitted curve, though single readings scatter.
Reply using exactly one outcome from True (active), False (inactive)

**Query** # fetch the recorded call for `CCOC(=O)c1ccccc1S(=O)(=O)NC(=O)Nc1nc(Cl)cc(OC)n1` here
**Result** False

**Query** # fetch the recorded call for BrCC(Br)c1ccccc1 (configuration not stated) here
**Result** False

**Query** # fetch the recorded call for `O=C(Nc1ccc2[nH]ccc2c1)c1cc2cc(F)ccc2n1Cc1cccc(F)c1` here
**Result** True

**Query** # fetch the recorded call for `CCC(C)(C)C(=O)OC1=C(c2ccc(Cl)cc2Cl)C(=O)OC12CCCCC2` here
**Result** False

**Query** # fetch the recorded call for `CCc1nn(C)c(C(=O)NCc2ccc(C(C)(C)C)cc2)c1Cl` here
**Result** True

**Query** # fetch the recorded call for `CCCCCCCCCBr` here
**Result** False

**Query** # fetch the recorded call for `Oc1ccc(I)cc1` here
**Result** False

**Query** # fetch the recorded call for `C[C@]12CC[C@@H]3c4ccc(OC(=O)N(CCCl)CCCl)cc4CC[C@H]3[C@@H]1CC[C@@H]2O` here
**Result** False

**Query** # fetch the recorded call for `Cl/C=C\CCl` here
**Result** False

**Query** # fetch the recorded call for `ClC(Cl)=C(Cl)Cl` here
**Result** False

**Query** # fetch the recorded call for `N#CNC#N` here
**Result** False

**Query** # fetch the recorded call for `S=C=Nc1cccc2ccccc12` here
**Result** True

**Query** # fetch the recorded call for `Cc1ccc(CCl)cc1` here
**Result** False

**Query** # fetch the recorded call for `CCCSP(=O)(OCC)SCCC` here
**Result** False

**Query** # fetch the recorded call for `CC(=O)Nc1ccc2c(c1)Cc1ccccc1-2` here
**Result** False

**Query** # fetch the recorded call for `O=C(O)COc1nc(Cl)c(Cl)cc1Cl` here
**Result** False

**Query** # fetch the recorded call for `COCC(=O)N(c1c(C)cccc1C)[C@H](C)C(=O)OC` here
**Result** False

**Query** # fetch the recorded call for `Cn1[nH]nnc1=S` here
**Result** False

**Query** # fetch the recorded call for `COc1ccc(OC)c(C=O)c1` here
**Result** False

**Query** # fetch the recorded call for CC(C)(C)C(O)C(Oc1ccc(-c2ccccc2)cc1)n1cncn1 (configuration not stated) here
**Result** True

**Query** # fetch the recorded call for `N#Cc1c(-c2ccc(Cl)cc2)[nH]c(C(F)(F)F)c1Br` here
**Result** True

**Query** # fetch the recorded call for CCOP(=O)(NC(C)C)Oc1ccc(SC)c(C)c1 (configuration not stated) here
**Result** False

**Query** # fetch the recorded call for `CCOCCOC(C)=O` here
**Result** False

**Query** # fetch the recorded call for `CC(C)C(=O)Cl` here
**Result** False

**Query** # fetch the recorded call for CC(C)CC(C)N (configuration not stated) here
**Result** False

**Query** # fetch the recorded call for `O=C(CCl)C(Cl)Cl` here
**Result** True

**Query** # fetch the recorded call for `O=CC(Br)(Br)Br` here
**Result** True

**Query** # fetch the recorded call for `CS(=O)(=O)c1ccc(C(=O)C2C(=O)CCCC2=O)c([N+](=O)[O-])c1` here
**Result** False

**Query** # fetch the recorded call for `C=COCCCl` here
**Result** False

**Query** # fetch the recorded call for `CC(C)(C)OO` here
**Result** False

**Query** # fetch the recorded call for c1ccc(OCC2CO2)cc1 (configuration not stated) here
**Result** False

**Query** # fetch the recorded call for `NC(=O)c1ccc(N)nc1` here
**Result** False

**Query** # fetch the recorded call for `CC(=[OH+])/C=C(/C)[O-].CC(=[OH+])/C=C(\C)[O-].CC(=[OH+])/C=C(\C)[O-].[Al]` here
**Result** False

**Query** # fetch the recorded call for CC(C)(COCC1CO1)COCC1CO1 (configuration not stated) here
**Result** False

**Query** # fetch the recorded call for `CC(=O)c1ccc(-c2ccccc2)cc1` here
**Result** False

**Query** # fetch the recorded call for `CC[C@H](C)[C@H]1O[C@]2(C=C[C@@H]1C)C[C@@H]1C[C@@H](C/C=C(\C)[C@@H](O[C@H]3C[C@H](OC)[C@@H](O[C@H]4C[C@H](OC)[C@@H](O)[C@H](C)O4)[C@H](C)O3)[C@@H](C)/C=C/C=C3\CO[C@@H]4[C@H](O)C(C)=C[C@@H](C(=O)O1)[C@]34O)O2` here
**Result** True

**Query** # fetch the recorded call for `C[C@@H]1CC[C@@]2(OC1)O[C@H]1[C@@H](O)[C@H]3[C@@H]4CC[C@H]5C[C@@H](O[C@@H]6O[C@H](CO)[C@H](O[C@@H]7O[C@H](CO)[C@@H](O)[C@H](O[C@@H]8OC[C@@H](O)[C@H](O)[C@H]8O)[C@H]7O[C@@H]7O[C@H](CO)[C@@H](O)[C@H](O[C@@H]8O[C@H](CO)[C@@H](O)[C@H](O)[C@H]8O)[C@H]7O)[C@H](O)[C@H]6O)[C@H](O)C[C@]5(C)[C@H]4CC[C@]3(C)[C@H]1[C@@H]2C` here
**Result** True

**Query** # fetch the recorded call for `CCN(CC)C(=S)[S-].CCN(CC)C(=S)[S-].[Zn+2]` here
**Result** True

**Query** # fetch the recorded call for `O=C(O)c1cc[c]([Hg][Cl])cc1` here
**Result** True

**Query** # fetch the recorded call for CC1(C)CC/C(=C/c2ccc(Cl)cc2)C1(O)Cn1cncn1 (configuration not stated) here
**Result** False

**Query** # fetch the recorded call for `CCCCCCCCCC[N+](C)(C)CCCCCCCCCC` here
**Result** True

**Query** # fetch the recorded call for `Oc1ccccc1Br` here
**Result** False

**Query** # fetch the recorded call for `CCCOCC(=Nc1ccc(Cl)cc1C(F)(F)F)n1ccnc1` here
**Result** True

**Query** # fetch the recorded call for `CC(C)(C)c1ccc(CSc2cnn(C(C)(C)C)c(=O)c2Cl)cc1` here
**Result** True

**Query** # fetch the recorded call for `CCCCN(CCCC)C(=S)[S-].CCCCN(CCCC)C(=S)[S-].[Zn+2]` here
**Result** True

**Query** # fetch the recorded call for `Clc1ccc(Oc2ccccc2)cc1` here
**Result** False

**Query** # fetch the recorded call for `FC(Cl)(Cl)Cl` here
**Result** False
